Cited source for all entries: patent US5981541A

- test.system: human topoisomerase I (Homo sapiens, UniProt P11387)
- Construct: 15 amino acid fusion from pET-11a vector (N); made in house; host or cells: E. coli BL21(DE3)
- Sequence (P11387 whole entry, the tested form may be a part): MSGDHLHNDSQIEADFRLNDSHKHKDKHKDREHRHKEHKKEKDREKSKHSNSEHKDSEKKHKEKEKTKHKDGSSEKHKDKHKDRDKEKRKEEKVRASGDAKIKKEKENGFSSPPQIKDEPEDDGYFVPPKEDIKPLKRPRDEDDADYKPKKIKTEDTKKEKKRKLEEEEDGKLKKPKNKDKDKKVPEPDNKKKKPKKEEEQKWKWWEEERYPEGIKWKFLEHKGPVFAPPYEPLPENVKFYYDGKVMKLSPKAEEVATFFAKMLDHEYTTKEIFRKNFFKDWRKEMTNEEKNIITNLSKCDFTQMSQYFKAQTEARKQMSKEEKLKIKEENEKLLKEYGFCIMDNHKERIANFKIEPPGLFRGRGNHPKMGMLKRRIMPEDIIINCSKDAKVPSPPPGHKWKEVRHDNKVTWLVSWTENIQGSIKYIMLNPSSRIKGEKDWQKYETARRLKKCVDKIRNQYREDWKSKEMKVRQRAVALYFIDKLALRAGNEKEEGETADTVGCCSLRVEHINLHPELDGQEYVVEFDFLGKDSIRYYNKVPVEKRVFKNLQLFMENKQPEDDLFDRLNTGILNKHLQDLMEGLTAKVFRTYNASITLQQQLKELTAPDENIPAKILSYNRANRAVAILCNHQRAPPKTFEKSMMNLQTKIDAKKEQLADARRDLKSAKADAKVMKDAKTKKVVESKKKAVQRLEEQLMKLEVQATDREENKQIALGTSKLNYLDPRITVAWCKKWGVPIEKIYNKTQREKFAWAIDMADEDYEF
- assay: Topo I-mediated DNA cleavage assay
- Assay type: biochemical
- test.settings: concentration relative to camptothecin (CPT = 1) producing the same cleavage on plasmid DNA in the presence of human topoisomerase I
outcome.measure: Topo I-mediated DNA cleavage (REC, Relative Effective Concentration)

Reference set, count: 2
> print(dat)
                                   compound  meas.value
1  COc1cc2c(cc1OC)-c1nc3cc(OC)c(OC)cc3c(C)c1CC2 [Compound 6]      > 1000
2  COc1cc2c(cc1OC)-c1c(c(C)c3cc(OC)c(OC)cc3[n+]1C)CC2 [Compound 8]      > 1000

Please turn your attention to the following entry.
Endpoint output: Topo I-mediated DNA cleavage (REC, Relative Effective Concentration) of COc1cc2ccc3c(C)c4cc(OC)c(OC)cc4nc3c2cc1OC [Compound 7] . Value? > 1000
